Test summary: protein stability index of a GFP-peptide fusion (yeast GPS) (PSI 1-4); higher = more stable; sorted into four equal gates, so the index is relative within each strain
Condition parameters: ubr1∆
# cutoff 3 applies to protein stability index; >= gives True, < gives False

INSERT INTO assay_data (residue_string, class_label) VALUES
  ('MLGRAGRPRYDTFGEGI [BRR2]', 'True'),
  ('NFEYDLSEYDAIQKKDN [YOR098C/NUP1]', 'True'),
  ('NNNGLPQNGNINNNINI [GAL11]', 'True');

API: above_or_equal(metric=protein stability index, cutoff=3) for item DTICQSIQEQIQEFQGN [SNF5]
True

And what about the sequence VENGTTSIGIKCNDGVV [PRE10] ?
True

* * *

Test summary: protein stability index of a GFP-peptide fusion (yeast GPS) (PSI 1-4); higher = more stable; sorted into four equal gates, so the index is relative within each strain
Condition parameters: pdr5∆
Collected protein stability index values appear next to each entry.
Output spec: single numeric token, no unit.

INSERT INTO measurements (residue_string, reported_endpoint, value_observed) VALUES
  ('KAKKLIQSLPPTLKVNR [RPL38]', 'protein stability index', 2.18),
  ('SRRTVNKEMETQRIMTN [YLR018C/POM34]', 'protein stability index', 3.15),
  ('IHKRYIDLEAPVQIVKR [RPS20]', 'protein stability index', 2.78),
  ('VPVKLEEIKTVDPASAP [RRP6]', 'protein stability index', 2.56),
  ('ESKDSIQDLIVKLKQQK [SMC3]', 'protein stability index', 3.12),
  ('PVYATIGVETGSEPLIQ [PRP28]', 'protein stability index', 3.1),
  ('KELVECHLYSQRMHAIH [NNF1]', 'protein stability index', 2.05),
  ('EEIVSNSSRFSDPMLQR [YCS4]', 'protein stability index', 2.95);

Fill blank: measured protein stability index of the sequence LLEFFELVFSKGVYLIL [YML103C/NUP188] is ____.
2.4

And what about the sequence ASPHASVRTAVFSALKN [ECM29] ?
1.58

And what about the sequence QKKIQINKEMGELNSKL [SMC3] ?
3.34

And what about the sequence RRMAFKPFGSAKSDETK [YLR335W/NUP2] ?
2.74

And what about the sequence RGVRPYKHIDASGSINR [RPS19A] ?
3.42

And what about the sequence LPSEERIQKIISKRKEE [YIL149C/MLP2] ?
1.66

* * *

Test summary: protein stability index of a GFP-peptide fusion (yeast GPS) (PSI 1-4); higher = more stable; sorted into four equal gates, so the index is relative within each strain
Condition parameters: ubr1∆
Collected protein stability index values appear next to each entry.
Output spec: single numeric token, no unit.

Examples from the recorded data:
INSERT INTO measurements (residue_string, reported_endpoint, value_observed) VALUES
  ('DNVDFILSNVDLAMANS [RPB3]', 'protein stability index', 2.97),
  ('FIPNKQLNCVIDRVNGI [RPN7]', 'protein stability index', 3.08),
  ('KQTAAYRTPGSSGVLSS [SSN2]', 'protein stability index', 2.88),
  ('SAFMKFSKAIEWDMLNV [BRR2]', 'protein stability index', 2.04),
  ('NTHNKSTKRVTKHPSLK [POP7]', 'protein stability index', 2.72);

Fill blank: measured protein stability index of the sequence DRSASRAVFLFRCKETH [RPC82] is ____.
3.02

And what about the sequence SEVANNGLIISWSNGKI [RRP42] ?
2.54

And what about the sequence KHEDFVEGISEVQARKS [RPT5] ?
3.41

And what about the sequence LGLKLACLGNDGILRLY [YGL100W/SEH1] ?
1.72

And what about the sequence YLDADVAKLANWFLEVY [YML031W/NDC1] ?
2.79

* * *

Collected protein stability index values appear next to each entry.
Test summary: protein stability index of a GFP-peptide fusion (yeast GPS) (PSI 1-4); higher = more stable; sorted into four equal gates, so the index is relative within each strain
Condition parameters: pdr5∆
Output spec: single numeric token, no unit.

Examples from the recorded data:
INSERT INTO results (residue_string, value_observed) VALUES
  ('ILINTARIHAQNYLKTY [PRE9]', 1.78),
  ('FYKNKYSSKPYKVDNMT [RPN2]', 2.84),
  ('TSNASMNTTLGSIGSRK [YAR002W/NUP60]', 3.27);

Fill blank: measured protein stability index of the sequence RPKKITGWITQSTPVLL [RPN1] is ____.
2.11

And what about the sequence RAIYSYLSGAIPNQEVL [YDL116W/NUP84] ?
2.58

* * *

Test summary: protein stability index of a GFP-peptide fusion (yeast GPS) (PSI 1-4); higher = more stable; sorted into four equal gates, so the index is relative within each strain
Condition parameters: pdr5∆
Collected protein stability index values appear next to each entry.

Examples from the recorded data:
INSERT INTO assay_data (residue_string, value_observed) VALUES
  ('MATNRADTLDPALLRPG [RPT3]', 3.31),
  ('QRGEDDLTFKLADILKA [RPO21]', 2.61),
  ('AQFTFGKAATAKETHTK [YOR098C/NUP1]', 2.81),
  ('QRESQIGAAELNENARE [SNF12]', 3.19),
  ('FQLLEPLSTYNKNGNAV [PGD1]', 2.93);

Fill blank: measured protein stability index of the sequence STDKLVQCHGSFATATC [SIR2] is ____.
2.67

And what about the sequence ILGIHTSKMNLSEDVNL [RPT2] ?
3.16

And what about the sequence RCWKANIPWDVPGMPAP [PRP8] ?
1.5

And what about the sequence KERKLRENIAMLKRFFP [SMC1] ?
2.52

* * *

Test summary: protein stability index of a GFP-peptide fusion (yeast GPS) (PSI 1-4); higher = more stable; sorted into four equal gates, so the index is relative within each strain
Condition parameters: pdr5∆
# cutoff 3 applies to protein stability index; >= gives 1, < gives 0

Sample answers from the record:
INSERT INTO measurements (residue_string, class_label) VALUES
  ('RQINKLIDSLPGVDVSA [SRB7]', 0),
  ('VGASVVVVKNWGAETDE [RPS12]', 1),
  ('SDSSKPAFSFGTKSNEK [YJL041W/NSP1]', 0),
  ('ARHKKKVENLDYMYENG [YML031W/NDC1]', 1);

API: above_or_equal(metric=protein stability index, cutoff=3) for item SLPSKLTKYKEMERIVK [SRP68]
0

* * *

Collected protein stability index values appear next to each entry.
Test summary: protein stability index of a GFP-peptide fusion (yeast GPS) (PSI 1-4); higher = more stable; sorted into four equal gates, so the index is relative within each strain
Condition parameters: doa10∆
Output spec: single numeric token, no unit.

INSERT INTO measurements (residue_string, reported_endpoint, value_observed) VALUES
  ('GEKNFTSAHLKLKEMQK [SMC4]', 'protein stability index', 3.01),
  ('FKNMGNTCYLNATLQAL [UBP6]', 'protein stability index', 1.8);

Fill blank: measured protein stability index of the sequence AEHKYMPYTINELLEMV [BRR2] is ____.
2.92

And what about the sequence QRGKMHGLKQLRDSLAD [NUT2] ?
3.04

And what about the sequence NSINNNNIKNGTNNISQ [YDL088C/ASM4] ?
2.79

And what about the sequence IVDGKLKTEKIFKEINE [FAS1] ?
1.76

And what about the sequence CAECSSKLSLSRTDAVR [RPC10] ?
2.12

* * *

Test summary: protein stability index of a GFP-peptide fusion (yeast GPS) (PSI 1-4); higher = more stable; sorted into four equal gates, so the index is relative within each strain
Condition parameters: ubr1∆
Entry class follows protein stability index: I: < 2; II: ≥ 2 and < 3; III: ≥ 3

Sample answers from the record:
INSERT INTO results (residue_string, class_label) VALUES
  ('ESQPKQTGTRRNSKLLN [MCD1]', 'III'),
  ('LISNLLFSKNRNEVLES [YCS4]', 'II'),
  ('QRQLLVQQQQQQQLRNQ [SNF5]', 'II'),
  ('FLSLLNLATKGMVKLNE [REC8]', 'I'),
  ('TGKTLLAKAVAATIGAN [RPT4]', 'II');

Categorize the following entry: ADKVYTKENLEVSGENV [QCR2]
III

And what about the sequence LAGKRGPKSGSTMGTPT [PGD1] ?
III

And what about the sequence ELTAQGYDPALLNILSG [RPN2] ?
II

And what about the sequence KIPEREEKSNEVKTPKI [SIR4] ?
III

And what about the sequence AHSLSPKDYIKKLLEVH [CDC53] ?
I

And what about the sequence KISNSKLLSLLRSKTSA [SIR4] ?
II

And what about the sequence PDLQFIVISLKNTMFEK [SMC1] ?
II

And what about the sequence NEIIRSLSDEVMRNEIR [SIR4] ?
II

And what about the sequence DYIKDEQRHLKRELKRA [RPT3] ?
I

And what about the sequence KKRLMDIDDELNELETL [SMC2] ?
III

And what about the sequence KAKKLIQSLPPTLKVNR [RPL38] ?
II

And what about the sequence LGTIESAQAETEALLLE [DIS3] ?
II

And what about the sequence MTVNDQPIEKNGDKMPL [YJR042W/NUP85] ?
III

And what about the sequence VTPIIDGIVVKNAVVRS [ARP7] ?
I

And what about the sequence DQDSAVVSSNIKKIVAD [QCR2] ?
III

And what about the sequence SPKPYAVKYGLNHVVAL [RPL8A] ?
II

And what about the sequence ERNAAYQKEYETAERNI [RPL7A] ?
II

And what about the sequence EQENMRKVREQEELKKR [MED2] ?
III

And what about the sequence RLQQGRRLPMTMFTAEQ [SNF2] ?
III
